This section presents compounds with their documented pKi values.
- target-or-test-system: Carbonic anhydrase 1 (Homo sapiens, UniProt P00915)
- Sequence (P00915 whole entry): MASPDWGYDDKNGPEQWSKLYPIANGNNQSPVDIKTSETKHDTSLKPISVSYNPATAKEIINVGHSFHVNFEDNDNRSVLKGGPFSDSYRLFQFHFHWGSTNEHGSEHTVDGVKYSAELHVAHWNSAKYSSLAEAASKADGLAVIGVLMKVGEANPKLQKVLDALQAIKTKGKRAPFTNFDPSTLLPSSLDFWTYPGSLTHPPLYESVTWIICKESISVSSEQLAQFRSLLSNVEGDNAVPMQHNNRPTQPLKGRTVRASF
Reminder that pKi means the negative base-10 logarithm of the concentration expressed in mol/L.

In the examples that follow, each entry is paired with its recorded pKi.
| compound | reported-measurement |
| --- | --- |
| NS(=O)(=O)NCCSSCCNS(N)(=O)=O | 6.83 |
| CCOC(=O)c1ccc(NS(N)(=O)=O)cc1 | 7.59 |
| NS(=O)(=O)N1CCCCCC1 | 6.79 |
| NS(=O)(=O)NC1C2CC3CC(C2)CC1C3 (configuration not stated) | 6.02 |
| NS(=O)(=O)Nc1cccc(C(=O)c2ccccc2)c1 | 7.21 |

pKi value, target or system Carbonic anhydrase 1 (Homo sapiens, UniProt P00915), for CCCCNS(N)(=O)=O : 6.76

With Carbonic anhydrase 1 (Homo sapiens, UniProt P00915) as the test system, NS(=O)(=O)Nc1ccc(Br)cc1 showed pKi of 7.64

Query NS(=O)(=O)Nc1ccc(Cl)cc1 on Carbonic anhydrase 1 (Homo sapiens, UniProt P00915); pKi returned: 7.72

Item NS(=O)(=O)Nc1ccccc1 [PHENYLSULFAMIDE] ; assay system Carbonic anhydrase 1 (Homo sapiens, UniProt P00915); pKi reported as 7.89

Test item NS(=O)(=O)Nc1ccc(O)cc1 ; Carbonic anhydrase 1 (Homo sapiens, UniProt P00915); reported pKi was 7.80

Origin of measurements: ChEMBL document CHEMBL1136615
